system: MOLT-4 leukemia; assay: NCI-60 one-dose screen, 48 h (100 = growth as untreated, 0 = no growth, -100 = all killed); details: 10 µM unless noted
This is part of a sample that, as a whole, favours compounds with a hit. Of some 83,000 tested, about 20% had one in any assay.
growth strictly under 90% means satisfied; at 90% or over means not satisfied.

1) C=CCSc1nc2ccccc2cc1/C=N/O : satisfied
2) NS(=O)(=O)c1cnccc1Oc1cccc2cccnc12 : not satisfied
3) CC1=NOC(=O)/C1=C\c1ccc(O)cc1 : not satisfied
4) Cc1ccc(/C=C/c2c(C(=O)/C=C/c3ccc(C(F)(F)F)cc3)c(C)nc3ccccc23)cc1 : satisfied
5) CCOC(=O)C/C(C)=N\NC(=O)c1ccncc1 : not satisfied
6) O=C1/C(=C2/C=Nc3ccccc32)N(O)c2ccccc21 : satisfied
7) NC(=S)N/N=C/Cc1ccccc1 : satisfied
8) Cc1ccc(/C=C2\C(=O)N(C)c3ccc(S(=O)(=O)Nc4ccc(C(C)(C)C)cc4)cc32)s1 : satisfied

###

test system: MALME-3M melanoma; assay: NCI-60 one-dose screen, 48 h; details: 10 µM unless noted
About 83,000 compounds went through this panel and 20% of them were active in at least one assay; those are over-represented in the sample as a whole. Active and inactive are the calls of the source. How the source made its calls: active means growth percent below 10; inactive means the rest.
Outcomes: Yes for active, No for inactive

1) Cc1nc2c(c(N3CCCc4ccccc43)n1)CCC2 : No
2) COc1cc(/C=C/C(=O)c2c(C)nc3ccccc3c2C)ccc1OCCCN1CCN(C(=O)c2ccco2)CC1 : No
3) Cc1c(Cl)cc(-n2c(=O)c3ccccc3c3ccccc3c2=O)cc1Cl : No
4) Cc1ccc(Cc2cnc(NC(=O)c3ccc4noc(-c5ccccc5)c4c3)s2)cc1 : No
5) NS(=O)(=O)c1cnccc1Oc1cccc2cccnc12 : No
6) C=C1C(=O)O[C@H]2[C@H]1CC/C(COC(=O)C(=O)c1c[nH]c3ccc(OC)cc13)=C\CC[C@@]1(C)O[C@@H]21 : Yes
7) Cn1c(-c2c(N)n(Cc3cccnc3)c3nc(C#N)c(C#N)nc23)nc2ccccc21 : No

###

test system: MDA-MB-231 breast; experiment: NCI-60 one-dose screen, 48 h; details: 10 µM unless noted
This is part of a sample that, as a whole, favours compounds with a hit. Of some 83,000 tested, about 20% had one in any assay. Active and inactive are the calls of the source. The calls were made as follows: active = growth percent below 10; inactive = the rest.
Outcomes: active, inactive

1. Cn1cc(-c2csc(-c3cccc(F)c3)n2)c2cccnc21 : active
2. Cc1nn(-c2ccccc2)c(Oc2ccc(Cl)cc2)c1/C=N\N=c1/sc2ccccc2n1C : inactive
3. Cc1ccc(-c2cc3c(cc2O)C2CCCCC2(N2CCOCC2)O3)cc1 (centres undefined) : inactive
4. O=c1c2c3c(sc2nc(N/N=C/c2ccc(Br)cc2)n1Cc1ccccc1)CCCC3 : inactive

###

tested on: SK-OV-3 ovarian; assay: NCI-60 one-dose screen, 48 h (100 = growth as untreated, 0 = no growth, -100 = all killed); details: 10 µM unless noted
About 83,000 compounds went through this panel and 20% of them were active in at least one assay; those are over-represented in the sample as a whole.
Answer Not met if growth is under 80%, and Met if it is 80% or more.

1. O=S(=O)(Nc1cccc(Cl)c1)c1ccc(-c2cnc(C3CC3)o2)cc1 : Not met
2. COc1ccc(NC(=O)CSc2nnc(-c3cc(-c4ccccc4)nc4ccccc34)n2-c2ccccc2)cc1 : Met
3. NC1=NCc2nc3ccccc3c(=O)n2C1 : Met
4. O=C1NC(=Nc2ccc(Cl)cc2)S/C1=C\c1cn(-c2ccccc2)nc1-c1ccccc1 : Met
5. Cc1ccc(/C=C2\C(=O)N(C)c3ccc(S(=O)(=O)Nc4ccc(C(C)(C)C)cc4)cc32)s1 : Not met
6. CC/C=C\C/C=C\C[C@H](O)C/C=C1/C(=O)C=C[C@@H]1C/C=C\CCCC(=O)O : Met
7. COc1ccc(-c2nc(SC(C)C)nc(NNC(N)=S)c2C#N)cc1 : Not met
8. Cc1ccc(C(=NN=C(N)N)c2ccc(C)cc2)cc1 : Not met
9. CCn1c(C)nc2cc(C(N)=O)ccc21 : Met

The reported measurements were obtained from PubChem BioAssay (NCI).
